biological target: CDK2/CycE (Homo sapiens, UniProt P24941); construct: GST; test: CDK2/CycE kinase assay (TR-FRET); conditions: avg, read-out: CDK2 avg (IC50 [mol/l])
result_type: IC50

[
  {
    "compound": "Cc1nsc(Nc2cnc3ccccc3n2)c1C(=O)Nc1ccc(C(=O)O)cc1 [Example 187]",
    "result_type": "IC50",
    "observed": "> 20 µM"
  },
  {
    "compound": "Cc1nsc(Nc2cncc(C(F)(F)F)n2)c1C(=O)Nc1ccc(OCCN)nc1 [Example 196]",
    "result_type": "IC50",
    "observed": "> 20 µM"
  },
  {
    "compound": "Cc1nsc(Nc2cnc(C(F)(F)F)cn2)c1C(=O)Nc1ccc(OC2CCCN(CCF)C2)nc1 (stereo not shown) [Example 329]",
    "result_type": "IC50",
    "observed": "≥ 20 µM"
  },
  {
    "compound": "Cc1nsc(Nc2cc(C#N)ccn2)c1C(=O)Nc1cccc(C(=O)NC2CC2)c1 [Example 175]",
    "result_type": "IC50",
    "observed": "> 20 µM"
  },
  {
    "compound": "Cc1nsc(Nc2ccc(C#N)cn2)c1C(=O)Nc1ccc(OC2CCNCC2)nc1 [Example 28]",
    "result_type": "IC50",
    "observed": "≥ 20 µM"
  },
  {
    "compound": "Cc1nsc(Nc2cncc(C(F)(F)F)n2)c1C(=O)Nc1ccc(OC2CCN(CC(F)F)CC2)c(F)c1 [Example 224]",
    "result_type": "IC50",
    "observed": "> 20 µM"
  },
  {
    "compound": "Cc1nsc(Nc2cnc(C(F)(F)F)cn2)c1C(=O)Nc1ccc(CCC2CCN(CC(F)F)CC2)nc1 [Example 356]",
    "result_type": "IC50",
    "observed": "> 20 µM"
  },
  {
    "compound": "Cc1nsc(Nc2cnc(C(F)(F)F)cn2)c1C(=O)Nc1ccc(OCC2CCN(CC(F)(F)F)CC2)nc1 [Example 346]",
    "result_type": "IC50",
    "observed": "≥ 20 µM"
  },
  {
    "compound": "Cc1nsc(Nc2cnc(C(F)(F)F)cn2)c1C(=O)Nc1ccc(N2CCN(CCC(F)(F)F)CC2)nc1 [Example 361]",
    "result_type": "IC50",
    "observed": "> 20 µM"
  },
  {
    "compound": "Cc1nsc(Nc2cnc3ccccc3n2)c1C(=O)Nc1ccc(OC2CCCNC2)nc1 (stereo not shown) [Example 32]",
    "result_type": "IC50",
    "observed": "≥ 20 µM"
  },
  {
    "compound": "CCCN1C[C@H](F)[C@H](Oc2ccc(NC(=O)c3c(C)nsc3Nc3cnc(C(F)(F)F)cn3)cn2)C1 [Example 408]",
    "result_type": "IC50",
    "observed": "> 20 µM"
  },
  {
    "compound": "Cc1nsc(Nc2cnc3ccccc3n2)c1C(=O)Nc1ccc(Oc2ccc(SC(F)(F)F)cc2)nc1 [Example 233]",
    "result_type": "IC50",
    "observed": "> 20 µM"
  },
  {
    "compound": "Cc1nsc(Nc2cnc3ccccc3n2)c1C(=O)Nc1cccc(C(=O)N[C@H](C(=O)OC(C)(C)C)[C@@H](C)OC(C)(C)C)c1 [Example 57]",
    "result_type": "IC50",
    "observed": "≥ 20 µM"
  },
  {
    "compound": "CCCCN1CC[C@@H](Oc2ccc(NC(=O)c3c(C)nsc3Nc3cnc(C(F)(F)F)cn3)cn2)[C@@H](F)C1 [Example 141]",
    "result_type": "IC50",
    "observed": "> 20 µM"
  },
  {
    "compound": "Cc1nsc(Nc2cnc(C(F)(F)F)cn2)c1C(=O)Nc1ccc(OC2CCN(C)CC2)nc1 [Example 220]",
    "result_type": "IC50",
    "observed": "> 20 µM"
  },
  {
    "compound": "Cc1nsc(Nc2cnc(C(F)(F)F)cn2)c1C(=O)Nc1ccc(OC[C@@H]2CCN(CC(F)(F)F)C2)nc1 [Example 128]",
    "result_type": "IC50",
    "observed": "> 20 µM"
  }
]

----------
test system: human cervical tumor cell line HeLa (ATCC CCL-2); assay: SAC-Formation - Nocodazole-Induced Assay; type: cell-based; conditions: Homo sapiens, HeLa, 24 h, HeLa cells, nocodazole 0.1 μg/ml together with test compound, decrease of mitotic cells (phospho-histone H3 Ser10)

[
  {
    "molecule": "CCN(CC)CCNC(=O)c1cccc(NC(=O)c2c(C)nsc2Nc2cnccn2)c1",
    "IC50, nM": 1200
  },
  {
    "molecule": "Cc1nsc(Nc2cncc(C(F)(F)F)n2)c1C(=O)Nc1ccc(C(=O)N2CCN(CC(F)F)CC2)cc1",
    "IC50, nM": 1100
  },
  {
    "molecule": "Cc1nsc(Nc2cc(C#N)ccn2)c1C(=O)Nc1ccc(OC2CCCNC2)nc1 (stereo not shown)",
    "IC50, nM": 15000
  },
  {
    "molecule": "Cc1nsc(Nc2cnc(C(F)(F)F)cn2)c1C(=O)Nc1ccc(F)c(O[C@@H]2CCN(CCC(F)(F)F)C2)c1",
    "IC50, nM": 39
  }
]

----------
Here the recorded pIC50 is given for each entry.
tested on: HeLa; experiment: Proliferation assay (crystal violet), HeLa; assay type: cell-based; conditions: Homo sapiens, HeLa, 96 h, HeLa cells; 4 days incubation; crystal violet staining; read-out: IC50 inhibition of proliferation, HeLa
pIC50: −log10 of the molar value.

[
  {
    "smiles": "CNS(=O)(=O)c1ccc(NC(=O)c2c(C)nsc2Nc2cncc(C(F)(F)F)n2)cc1",
    "pIC50": 5.00
  },
  {
    "smiles": "Cc1nsc(Nc2cnc(C(F)(F)F)cn2)c1C(=O)Nc1ccc(C(=O)NC2CN(CC(F)F)C2)cc1",
    "pIC50": 5.03
  },
  {
    "smiles": "Cc1nsc(Nc2ccc(C#N)cn2)c1C(=O)Nc1ccc(C(=O)OC(C)(C)C)cc1",
    "pIC50": 6.16
  },
  {
    "smiles": "C#CCN(C)C(=O)c1cccc(NC(=O)c2c(C)nsc2Nc2cnc3ccccc3n2)c1",
    "pIC50": 5.00
  }
]

----------
system: HeLa; assay: Proliferation assay (crystal violet), HeLa; type: cell-based; settings: Homo sapiens, HeLa, 96 h, HeLa cells; 4 days incubation; crystal violet staining; read-out: IC50 inhibition of proliferation, HeLa
pIC50: −log10 of the molar value.
result_type: pIC50

[
  {
    "compound": "CCNC(=O)c1cccc(NC(=O)c2c(C)nsc2Nc2cnc3ccccc3n2)c1",
    "result_type": "pIC50",
    "reading_qualifier": "=",
    "observed": 5.35
  },
  {
    "compound": "Cc1nsc(Nc2cnc(C(F)(F)F)cn2)c1C(=O)Nc1ccc(OCCCNCCC(F)(F)F)nc1",
    "result_type": "pIC50",
    "reading_qualifier": "=",
    "observed": 5.89
  },
  {
    "compound": "Cc1nsc(Nc2cnc(C(F)(F)F)cn2)c1C(=O)Nc1ccc(OC2CCN(CC(F)F)C2)nc1 (centres unmarked)",
    "result_type": "pIC50",
    "reading_qualifier": "=",
    "observed": 6.22
  },
  {
    "compound": "CNC(=O)c1ccc(NC(=O)c2c(C)nsc2Nc2ccc(C#N)cn2)cc1F",
    "result_type": "pIC50",
    "reading_qualifier": "=",
    "observed": 5.22
  },
  {
    "compound": "Cc1nsc(Nc2cnc(C(F)(F)F)cn2)c1C(=O)Nc1ccc(OC2CCN(C(CF)CF)CC2)nc1",
    "result_type": "pIC50",
    "reading_qualifier": "=",
    "observed": 6.06
  },
  {
    "compound": "Cc1nsc(Nc2cnc3ccccc3n2)c1C(=O)Nc1cccc(NS(=O)(=O)C2CN(CC(F)(F)F)C2)c1",
    "result_type": "pIC50",
    "reading_qualifier": "<",
    "observed": 5.00
  },
  {
    "compound": "Cc1nsc(Nc2cncc(C(F)(F)F)n2)c1C(=O)Nc1ccc(C(=O)NC2CN(CC(F)(F)F)C2)cc1",
    "result_type": "pIC50",
    "reading_qualifier": "<",
    "observed": 5.00
  },
  {
    "compound": "Cc1nsc(Nc2cnc(C(F)(F)F)cn2)c1C(=O)Nc1ccc(N2CCN(CC(F)F)CC2)cn1",
    "result_type": "pIC50",
    "reading_qualifier": "=",
    "observed": 5.82
  }
]

----------
Quick record: IC50, catalytic domain of human Bub1 (amino acids 704-1085) (Homo sapiens, UniProt O43683).
result_type: IC50

[
  {
    "compound": "Cc1nsc(Nc2cnc(C(F)(F)F)cn2)c1C(=O)Nc1ccc(N2CCN(CC(F)(F)F)CC2)nc1",
    "result_type": "IC50",
    "observed": "> 20 µM"
  },
  {
    "compound": "Cc1nsc(Nc2cncc(C(F)(F)F)n2)c1C(=O)Nc1ccc(OCCCNC(=O)OC(C)(C)C)nc1",
    "result_type": "IC50",
    "observed": "> 20 µM"
  },
  {
    "compound": "Cc1nsc(Nc2cnc(C(F)(F)F)cn2)c1C(=O)Nc1ccc(F)c(OCC2CCN(CC(F)F)C2)c1 (centres unmarked)",
    "result_type": "IC50",
    "observed": "≥ 20 µM"
  },
  {
    "compound": "Cc1nsc(Nc2cnc(C(F)(F)F)cn2)c1C(=O)Nc1ccc(F)c(OC[C@H]2CCCN(CC(F)F)C2)c1",
    "result_type": "IC50",
    "observed": "> 20 µM"
  },
  {
    "compound": "Cc1nsc(Nc2cnc3ccccc3n2)c1C(=O)Nc1ccc(OC2CCN(C(=O)OC(C)(C)C)CC2)nc1",
    "result_type": "IC50",
    "observed": "≥ 20 µM"
  },
  {
    "compound": "Cc1nsc(Nc2cnc(C(F)(F)F)cn2)c1C(=O)Nc1ccc(OCCN)c(F)c1",
    "result_type": "IC50",
    "observed": "> 20 µM"
  },
  {
    "compound": "CC(=O)Nc1cc(NC(=O)c2c(C)nsc2Nc2ccc(C#N)cn2)ccc1F",
    "result_type": "IC50",
    "observed": "> 20 µM"
  },
  {
    "compound": "Cc1nsc(Nc2cncc(C(F)(F)F)n2)c1C(=O)Nc1ccc(OCCCO)nc1",
    "result_type": "IC50",
    "observed": "> 20 µM"
  }
]
